For each of the compounds below, state its Ki.
- test.target: human FLAP (Homo sapiens (Human))
- Sequence (P20292 whole entry): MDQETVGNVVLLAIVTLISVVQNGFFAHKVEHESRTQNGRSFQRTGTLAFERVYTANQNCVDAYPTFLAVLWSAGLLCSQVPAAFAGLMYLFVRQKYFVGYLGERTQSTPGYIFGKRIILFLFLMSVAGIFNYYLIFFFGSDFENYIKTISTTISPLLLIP
- experimental.details: FLAP binding assay (HTRF format)
- measurement.context: wild type FLAP, HTRF format
State just the number; it will be interpreted in nM.

Recorded result, CC(C)(C)NS(=O)(=O)c1ccccc1-c1ccc(-c2ccc3scnc3c2)c(F)c1 , Ki: 10

Recorded result, CC(C)(C)NS(=O)(=O)c1ccccc1-c1ccc(-c2csc(N)n2)c(F)c1 , Ki: 10

----------
- test.target: UniProt P20292
- experimental.details: FLAP binding assay (HTRF format)
- measurement.context: wild type FLAP, HTRF format
pKi: −log10 of the molar value.
observed.property: pKi

Recorded result, Nc1ncc(-c2ccc(-c3ccccc3C(=O)NC3CCC(O)CC3)cc2F)cn1 (mixture of isomers) [Example 765] , pKi: < 5.00

Recorded result, NCC1(S(=O)(=O)c2ccccc2-c2ccc(-c3cnc(N)nc3)c(F)c2)CCCC1 [Example 740] , pKi: < 5.00

Recorded result, CC(C)(C)NS(=O)(=O)c1ccccc1-c1ccc(-c2cn3c(C#N)cccc3n2)c(F)c1 [Example 584] , pKi: < 5.00

Recorded result, Nc1cnc(-c2ccc(-c3ccccc3N3CCNC3=O)cc2F)cn1 [Example 702] , pKi: ~6.52

Recorded result, Nc1ncc(-c2ccc(-c3cccnc3N)cc2F)cn1 [Example 409] , pKi: < 5.00

Recorded result, CC1CN(C(=O)c2ccccc2-c2ccc(-c3cnc(N)nc3)c(F)c2)CC(C)O1 (mixture of isomers) [Example 780] , pKi: < 5.00

Recorded result, CCOC(=O)c1cccc2nc(-c3ccc(-c4ccccc4S(=O)(=O)NC(C)(C)C)cc3F)cn12 [Example 587] , pKi: < 5.00

Recorded result, Nc1cnc(-c2ccc(-c3ccccc3C(=O)O)cc2F)cn1 [Example 485] , pKi: < 5.00

Recorded result, C[C@H](NC(=O)c1ccccc1-c1ccc(-c2cnc(N)cn2)c(F)c1)C(F)(F)F [Example 505] , pKi: 7.74

Recorded result, O=C(c1ccccc1-c1ccc(-c2cnc3[nH]ccc3n2)c(F)c1)N1CCOCC1 [Example 500] , pKi: 7.32

Recorded result, O=C(c1ccccc1-c1ccc(-c2cnc3[nH]ccc3c2)c(F)c1)N1CCOCC1 [Example 498] , pKi: 7.80

Recorded result, NCCOc1ccccc1-c1ccc(-c2cnc(N)nc2)c(F)c1 [Example 641] , pKi: < 5.00

Recorded result, C[C@@H]1COCCN1C(=O)c1ccccc1-c1ccc(-c2cnc(N)nc2)c(F)c1 [Example 779] , pKi: ~5.60
